molecular target: p38α (Homo sapiens); construct: p38 MAP Kinases are recombinant human full-length proteins with an amino-terminal GST fusion; GST (N); purchased Upstate Biotechnology Inc; host or cells: E. coli; test: p38 MAP Kinase assay: inhibition of ATF2 phosphorylation, ELISA; format: biochemical; settings: 10 uM; substrate ATF2; read-out: [ENZ] P38 ALPHA, PCT INH, ELISA (10 uM;ATF2) (Percent)
Sequence (Q16539 whole entry, the tested form may be a part): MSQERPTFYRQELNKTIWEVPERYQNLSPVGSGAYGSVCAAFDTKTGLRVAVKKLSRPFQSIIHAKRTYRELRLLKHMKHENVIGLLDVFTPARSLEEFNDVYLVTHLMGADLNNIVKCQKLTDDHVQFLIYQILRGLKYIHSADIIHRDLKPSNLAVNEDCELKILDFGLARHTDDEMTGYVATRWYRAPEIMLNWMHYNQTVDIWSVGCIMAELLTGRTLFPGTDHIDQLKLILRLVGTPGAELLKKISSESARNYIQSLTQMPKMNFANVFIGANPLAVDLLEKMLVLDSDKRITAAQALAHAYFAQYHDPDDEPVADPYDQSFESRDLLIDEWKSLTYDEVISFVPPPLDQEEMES
Attribute Measured: inhibition at 10 µM (%)

a. O=C(Nc1ccc(OCCN2CCOCC2)c2ccccc12)c1cccc(-c2ccc(OC(F)(F)F)cc2)c1
b. CC1CCCN1c1cccc(C(=O)Nc2ccc(OCCN3CCOCC3)c3ccccc23)n1 (stereo not shown)
Prompt: In the pair a and b , the larger recorded inhibition at 10 µM belongs to which? Return value: the label identifying the chosen record.
Completion: a
(a: 29%, b: 17%)

1. O=C(Nc1ccc(OCCN2CCOCC2)c2ccccc12)c1ccnc(N2CCOCC2)c1
2. O=C(Nc1ccc(OCCN2CCOCC2)c2ccccc12)c1cccc(-c2ccccc2C(F)(F)F)c1
Prompt: Record comparison, field inhibition at 10 µM: mark the lower of 1 and 2 . Your answer should be the label of the entry you select.
Completion: 2
